- Tested on: HeLa
- test_protocol: Antiproliferative activity against human HeLa cells assessed as inhibition of cell proliferation incubated for 48 hrs by MTT assay
- Assay type: functional, cell-based
experimental_readout: pIC50
// pIC50 here means minus log10 of the molar concentration (mol/L)

Please report the recorded pIC50 for `C=C(C)[C@@H]1CC[C@]2(C(=O)O)CC[C@]3(C)[C@H](CC[C@@H]4[C@@]5(C)CC[C@@H](OC(=O)CCl)C(C)(C)[C@@H]5CC[C@]43C)[C@@H]12` .
4.77

Please report the recorded pIC50 for `C=C(C)[C@@H]1CC[C@]2(C(=O)O)CC[C@]3(C)[C@H](CC[C@@H]4[C@@]5(C)CC[C@H](OC(=O)CBr)C(C)(C)[C@@H]5CC[C@]43C)[C@@H]12` .
4.73
